# testedOn: T1, rat NPRA (rat, UniProt P18910 29-1057)
# T1 sequence (looked up): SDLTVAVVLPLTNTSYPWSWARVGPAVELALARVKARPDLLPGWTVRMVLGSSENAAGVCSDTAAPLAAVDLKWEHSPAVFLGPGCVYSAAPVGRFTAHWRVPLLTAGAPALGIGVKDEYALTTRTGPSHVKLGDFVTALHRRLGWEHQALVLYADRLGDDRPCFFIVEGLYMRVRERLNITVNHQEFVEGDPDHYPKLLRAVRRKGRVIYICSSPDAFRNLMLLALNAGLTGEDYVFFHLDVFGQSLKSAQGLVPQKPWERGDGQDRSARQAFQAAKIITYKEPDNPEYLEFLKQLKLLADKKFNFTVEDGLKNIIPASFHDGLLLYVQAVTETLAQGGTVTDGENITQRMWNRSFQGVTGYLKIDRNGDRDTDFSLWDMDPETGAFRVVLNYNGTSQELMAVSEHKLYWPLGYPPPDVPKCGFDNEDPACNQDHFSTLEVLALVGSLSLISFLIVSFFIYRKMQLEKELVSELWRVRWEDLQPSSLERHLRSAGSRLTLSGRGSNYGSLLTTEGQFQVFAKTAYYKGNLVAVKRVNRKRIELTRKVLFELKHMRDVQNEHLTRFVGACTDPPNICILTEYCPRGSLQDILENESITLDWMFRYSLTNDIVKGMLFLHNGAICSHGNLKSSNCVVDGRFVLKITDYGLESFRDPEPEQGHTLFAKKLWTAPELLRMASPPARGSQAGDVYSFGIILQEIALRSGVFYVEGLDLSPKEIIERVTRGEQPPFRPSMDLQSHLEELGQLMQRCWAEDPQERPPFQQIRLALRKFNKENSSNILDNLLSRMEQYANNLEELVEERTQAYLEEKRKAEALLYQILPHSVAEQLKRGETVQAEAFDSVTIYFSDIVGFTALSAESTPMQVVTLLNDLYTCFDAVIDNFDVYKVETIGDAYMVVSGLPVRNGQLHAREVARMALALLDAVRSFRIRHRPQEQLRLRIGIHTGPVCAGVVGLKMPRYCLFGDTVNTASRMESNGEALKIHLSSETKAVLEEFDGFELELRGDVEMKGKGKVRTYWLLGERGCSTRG
# assayDetails: cell-based or functional assay
Numbered stars: 1 amine (or outer) side, 2 acyl side, 3 side chain; on linkers, the order of the positions; unused ones are H or OH. Bridge positions count the residues as written; N and C are the ends. Square brackets hold non-standard residues; d marks the D form. Primed or numbered codes have the meaning given here. * marks the point of attachment. thioacetal = thioacetal linkage between two cysteines (intrachain bond at the bracketed Cys); C20 diacid = O=C(O)CCCCCCCCCCCCCCCCCCC(=O)*; γGlu = O=C(O)[C@H](CCC(=O)[*:2])N[*:1]; 4Pal = N[C@@H](Cc1ccncc1)C(=O)O; thioacetal″ = not defined here
Kindly supply the reported cGMP Assay (EC50, pM) w/BSA values for the records listed here.
Write down the numeric answer in pM and omit the unit.

Request: Given the binder SXRRSSCFGGRIDRIGHQSGLGCPSFRHGGKSSGAPPPS (HOOC-(CH2)18-CO-(γGlu)-EKEKEKG-(AEEA)4-S-4Pal-RRSS[CFGGRIDRIGHQSGLGC]PSFRHGGKSSGAPPPS-NH2; thioacetal linkage between the bracketed Cys) [Example 83] , write its reported cGMP Assay (EC50, pM) w/BSA.
Result: 860000

Request: Given the binder {C20 diacid}-[γGlu]EKEKEKGS[4Pal]RRSSCFGKRIDRIGHQSGLGCPSFRHGGKSSGAPPPS-NH2 (bridge 15-31 via thioacetal) [Example 79] , write its reported cGMP Assay (EC50, pM) w/BSA.
Result: 261000

Request: Given the binder {C20 diacid}-[γGlu]EKEKEKGS[4Pal]RRSSCFGKRIDRIGHYSGLGCPSFRHGGKSSGAPPPS-NH2 (bridge 15-31 via thioacetal″; reading uncertain) [Example 81] , write its reported cGMP Assay (EC50, pM) w/BSA.
Result: 127000

Request: Given the binder EKXRSSCFGKRIDRIGHQSGLGCPSFRHGSPSSGAPPPS (HOOC-(CH2)18-CO-(γGlu)-EKEKEKG-PEG24-EK-βAla-RSS[CFGKRIDRIGHQSGLGC]PSFRHGSPSSGAPPPS-NH2; thioacetal linkage between the bracketed Cys) [Example 4] , write its reported cGMP Assay (EC50, pM) w/BSA.
Result: 519000

Request: Given the binder SXRRSSCFGGRIDRIGHYSGLGCPSFRHGGKSSGAPPPS (HOOC-(CH2)18-CO-(γGlu)-EKEKEKG-PEG24-S-4Pal-RRSS[CFGGRIDRIGHYSGLGC]PSFRHGGKSSGAPPPS-NH2; thioacetal linkage between the bracketed Cys) [Example 95] , write its reported cGMP Assay (EC50, pM) w/BSA.
Result: 322000

Each recorded value in this set is attributed to patent US20240174727A1.
